experiment: Selectivity index, ratio of EC50 for cytotoxicity against human MRC5 cells to EC50 for antitrypanosomal activity against Trypanosoma brucei rhodesiense; assay type: toxicity, cell-based; settings: read-out: Ratio EC50
Overview of reported selectivity ratio across a group of compounds:

Solved cases (5 shown):
{"columns": ["smiles-representation", "selectivity ratio"],
 "data": [
  ["CC(C)CCOc1ncnc2c1c(Cl)cn2[C@@H]1O[C@H](CO)[C@@H](O)[C@H]1O", "> 2200"],
  ["O=c1[nH]cnc2c1ccn2[C@@H]1O[C@H](CO)C[C@H]1O", "> 22"],
  ["Nc1nc(Cl)c2ccn([C@@H]3O[C@H](CO)[C@@H](O)[C@H]3O)c2n1", "> 347"],
  ["COc1ncnc2c1c(Br)cn2[C@@H]1O[C@H](CO)C[C@H]1O", 0.7],
  ["Nc1nc2c(c(Br)cn2[C@@H]2O[C@H](CO)[C@@H](O)[C@H]2O)c(=O)[nH]1", "> 130"]
]}

query: Query (compound): OC[C@H]1O[C@@H](n2cc(Cl)c3c(OC4CCCCC4)ncnc32)[C@H](O)[C@@H]1O ; field requested: selectivity ratio
result: > 168

query: Query (compound): Nc1nc2c(ccn2[C@@H]2O[C@H](CO)[C@@H](O)[C@H]2O)c(=O)[nH]1 ; field requested: selectivity ratio
result: > 5

query: Query (compound): COCCOc1ncnc2c1c(Cl)cn2[C@@H]1O[C@H](CO)[C@@H](O)[C@H]1O ; field requested: selectivity ratio
result: 18.8

query: Query (compound): O=c1[nH]cnc2c1c(Br)cn2[C@@H]1O[C@H](CO)[C@@H](O)[C@H]1O ; field requested: selectivity ratio
result: 22

query: Query (compound): COc1ncnc2c1c(Br)cn2[C@@H]1O[C@H](CO)[C@@H](O)[C@H]1O ; field requested: selectivity ratio
result: > 1780

----------
system: Trypanosoma brucei rhodesiense; test: Antitrypanosomal activity against Trypanosoma brucei rhodesiense assessed as reduction in parasite growth incubated for 3 days by resazurin dye based fluorescence assay; format: functional, organism-based; details: 72 h
measurement-name: pEC50
# pEC50: negative log10 of molar concentration; output just the value

query: Missing value: pEC50, Trypanosoma brucei rhodesiense, entry COc1ncnc2c1c(-c1ccc(Cl)cc1)cn2[C@@H]1O[C@H](CO)[C@@H](O)[C@H]1O . Fill in?
result: 4.65

query: Missing value: pEC50, Trypanosoma brucei rhodesiense, entry Nc1nc(Cl)c2c(Br)cn([C@@H]3O[C@H](CO)[C@@H](O)[C@H]3O)c2n1 . Fill in?
result: 7.33

query: Missing value: pEC50, Trypanosoma brucei rhodesiense, entry OC[C@H]1O[C@@H](n2cc(Cl)c3c(OCCc4ccccc4)ncnc32)[C@H](O)[C@@H]1O . Fill in?
result: 7.52

query: Missing value: pEC50, Trypanosoma brucei rhodesiense, entry Nc1nc2c(c(Br)cn2[C@@H]2O[C@H](CO)[C@@H](O)[C@H]2O)c(=O)[nH]1 . Fill in?
result: 6.31

query: Missing value: pEC50, Trypanosoma brucei rhodesiense, entry Nc1nc(Cl)c2ccn([C@@H]3O[C@H](CO)[C@@H](O)[C@H]3O)c2n1 . Fill in?
result: 6.74

----------
system: Trypanosoma brucei brucei; experiment: Antitrypanosomal activity against Trypanosoma brucei brucei Lister 427 blood stream forms assessed as reduction in parasite viability incubated for 48 hrs by resazurin dye based fluorescence assay; type: functional, organism-based; settings: Lister 427, 48 h
measurement-name: EC50

{"columns": ["smiles-representation", "assayed-system", "EC50"],
 "data": [
  ["COc1ncnc2c1c(Cl)cn2[C@@H]1O[C@H](CO)[C@@H](O)[C@H]1O", "Trypanosoma brucei brucei", "100 nM"],
  ["CC(C)Oc1ncnc2c1c(Cl)cn2[C@@H]1O[C@H](CO)[C@@H](O)[C@H]1O", "Trypanosoma brucei brucei", "184 nM"],
  ["CCOc1ncnc2c1c(Cl)cn2[C@@H]1O[C@H](CO)[C@@H](O)[C@H]1O", "Trypanosoma brucei brucei", "79 nM"]
]}

Next item in the queue.
query: Missing value: EC50, Trypanosoma brucei brucei, entry COc1ncnc2c1c(Br)cn2[C@@H]1O[C@H](CO)[C@@H](O)[C@H]1O . Fill in?
result: 117 nM

----------
assay: Selectivity index, ratio of EC50 for cytotoxicity against human MRC5 cells to EC50 for antitrypanosomal activity against Trypanosoma brucei brucei; type: toxicity, cell-based; settings: read-out: Ratio EC50
Criterion: selectivity ratio strictly under 30. Met: Satisfied. Not met: Not satisfied.

{"columns": ["smiles-representation", "label"],
 "data": [
  ["OC[C@H]1O[C@@H](n2cc(Cl)c3c(OC4CCCCC4)ncnc32)[C@H](O)[C@@H]1O", "Not satisfied"],
  ["Nc1nc2c(c(Br)cn2[C@@H]2O[C@H](CO)[C@@H](O)[C@H]2O)c(=O)[nH]1", "Not satisfied"],
  ["O=c1[nH]cnc2c1c(F)cn2[C@@H]1O[C@H](CO)[C@@H](O)[C@H]1O", "Satisfied"]
]}

query: Would you kindly verify if selectivity ratio of CCCCCOc1ncnc2c1c(Cl)cn2[C@@H]1O[C@H](CO)[C@@H](O)[C@H]1O is strictly less than 30?
result: Satisfied

query: Would you kindly verify if selectivity ratio of COc1ncnc2c1c(Cl)cn2[C@@H]1O[C@H](CO)[C@@H](O)[C@H]1O is strictly less than 30?
result: Not satisfied

query: Would you kindly verify if selectivity ratio of CC(C)COc1ncnc2c1c(Cl)cn2[C@@H]1O[C@H](CO)[C@@H](O)[C@H]1O is strictly less than 30?
result: Not satisfied

query: Would you kindly verify if selectivity ratio of OC[C@H]1O[C@@H](n2cc(Cl)c3c(OCCOc4ccccc4)ncnc32)[C@H](O)[C@@H]1O is strictly less than 30?
result: Not satisfied

----------
tested on: Trypanosoma brucei rhodesiense; assay: Antitrypanosomal activity against Trypanosoma brucei rhodesiense assessed as reduction in parasite growth incubated for 3 days by resazurin dye based fluorescence assay; format: functional, organism-based; conditions: 72 h
Class assignment keyed on EC50, ranges bin A (below 0.08 µM), bin B (0.08 µM to below 20 µM), bin C (20 µM or more)

Some entries whose results are on file:
{"columns": ["smiles-representation", "assayed-system", "label"],
 "data": [
  ["O=c1[nH]cnc2c1c(I)cn2[C@@H]1O[C@H](CO)[C@@H](O)[C@H]1O", "Trypanosoma brucei rhodesiense", "bin C"],
  ["O=c1[nH]cnc2c1c(Br)cn2[C@@H]1O[C@H](CO)C[C@H]1O", "Trypanosoma brucei rhodesiense", "bin C"],
  ["COc1ncnc2c1c(Br)cn2[C@@H]1O[C@H](CO)[C@@H](O)[C@H]1O", "Trypanosoma brucei rhodesiense", "bin A"]
]}

query: Lab log: Nc1nc(O)c2ccn([C@@H]3O[C@H](CO)C[C@H]3O)c2n1 — assign EC50 category
result: bin C

query: Lab log: COCCOc1ncnc2c1c(Cl)cn2[C@@H]1O[C@H](CO)[C@@H](O)[C@H]1O — assign EC50 category
result: bin B

query: Lab log: O=c1[nH]cnc2c1ccn2[C@@H]1O[C@H](CO)[C@@H](O)[C@H]1O — assign EC50 category
result: bin B

query: Lab log: CC(C)CCOc1ncnc2c1c(Cl)cn2[C@@H]1O[C@H](CO)[C@@H](O)[C@H]1O — assign EC50 category
result: bin A

query: Lab log: O=c1[nH]cnc2c1c(Br)cn2[C@@H]1O[C@H](CO)[C@@H](O)[C@H]1O — assign EC50 category
result: bin C

query: Lab log: Nc1ncc2ccn([C@@H]3O[C@H](CO)[C@@H](O)[C@H]3O)c2n1 — assign EC50 category
result: bin C

query: Lab log: COc1ncnc2c1c(Br)cn2[C@@H]1O[C@H](CO)C[C@H]1O — assign EC50 category
result: bin B

query: Lab log: COc1nc(N)nc2c1c(Br)cn2[C@@H]1O[C@H](CO)[C@@H](O)[C@H]1O — assign EC50 category
result: bin A

----------
assay: Selectivity index, ratio of EC50 for cytotoxicity against human MRC5 cells to EC50 for antitrypanosomal activity against Trypanosoma brucei rhodesiense; format: toxicity, cell-based; conditions: read-out: Ratio EC50
measurement-name: selectivity ratio

Solved cases (4 shown):
{"columns": ["smiles-representation", "selectivity ratio"],
 "data": [
  ["O=c1[nH]cnc2c1c(I)cn2[C@@H]1O[C@H](CO)[C@@H](O)[C@H]1O", "> 2.7"],
  ["Cc1nc2c(ccn2[C@@H]2O[C@H](CO)[C@@H](O)[C@H]2O)c(=O)[nH]1", "> 13"],
  ["O=c1[nH]cnc2c1c(-c1ccccc1)cn2[C@@H]1O[C@H](CO)[C@@H](O)[C@H]1O", "> 6.8"],
  ["O=c1[nH]cnc2c1c(Br)cn2[C@@H]1O[C@H](CO)C[C@H]1O", "> 28"]
]}

query: Query (molecule): O=c1[nH]cnc2c1c(Cl)cn2[C@@H]1O[C@H](CO)[C@@H](O)[C@H]1O ; field requested: selectivity ratio
result: > 2.5
